- TESTED TARGET: recombinant human Cathepsin B (Homo sapiens, UniProt P07858)
- Construct: purchased R&D Systems (Bio-Techne AG) 953-CY-010
- EXPERIMENT SUMMARY: Recombinant human Cathepsin B-induced cleavage (in vitro enzymatic cleavage assay, UHPLC-MS/MS)
- Type: biochemical
- CONDITION INFO: reference Cys-MC-Val-Cit-PABC-MMAF
Non-standard residues stand in square brackets, D forms with d. Residues, ends and D or L forms follow the SMILES beside them. Groups on a side chain read outwards from the residue. *: point of attachment. Camptothecin(20S-OCO) = CC[C@@]1(OC(=O)*)C(=O)OCc2c1cc1n(c2=O)Cc2cc3ccccc3nc2-1; X1 = CC[C@@]1(O*)C(=O)OCc2c1cc1n(c2=O)Cc2cc3ccccc3nc2-1; PEG5 = NCCOCCOCCOCCOCCOCCC(=O)O; Dab = NCC[C@H](N)C(=O)O; Sar = CNCC(=O)O
OBSERVATION TYPE: Ratio (T1/2 Compound/T1/2 Reference)
Numbers only.

CC[C@@]1(OC(=O)NCC[C@H](NC(=O)[C@H](CCCNC(=N)N)NC(=O)[C@H](Cc2ccccc2)NC(=O)CCOCCOCCOCCOCCOCCNC(=O)[C@@H](N)CCCNC(=N)N)C(=O)N[C@@H](Cc2ccccc2)C(=O)O)C(=O)OCc2c1cc1n(c2=O)Cc2cc3ccccc3nc2-1 [Compound 10, Arg-PEG4-Phe-Arg-Dab(CO-CPT)-Phe-OH] (H-R[PEG5]FR[Dab](Camptothecin(20S-OCO))F-OH; N-terminus assumed); 0.1

(Q) Reported Ratio (T1/2 Compound/T1/2 Reference) for CC[C@@]1(OC(=O)CN(C)C(=O)CC[C@H](NC(=O)[C@H](CCCNC(=N)N)NC(=O)[C@H](Cc2ccccc2)NC(=O)CCOCCOCCOCCOCCOCCNC(=O)[C@@H](N)CCCNC(=N)N)C(=O)N[C@@H](Cc2ccccc2)C(=O)O)C(=O)OCc2c1cc1n(c2=O)Cc2cc3ccccc3nc2-1 [Compound 8, Arg-PEG4-Phe-Arg-Glu(Sar-OCPT)-Phe-OH] (H-R[PEG5]FRE([Sar-X1])F-OH; N-terminus assumed) : what is it?
(A) 0.19

----------
- TESTED TARGET: T1, recombinant human Cathepsin B (Homo sapiens, UniProt P07858)
- T1 construct: purchased R&D Systems (Bio-Techne AG) 953-CY-010
- EXPERIMENT SUMMARY: Recombinant human Cathepsin B-induced cleavage (in vitro enzymatic cleavage assay, UHPLC-MS/MS)
- Type: biochemical
- CONDITION INFO: human, pH 5, 10 μM test compound, Cathepsin B 2 μg/mL, 25 mM MES buffer pH 5.0, 37° C.; read-out: T1/2 Compound
Non-standard residues stand in square brackets, D forms with d. Residues, ends and D or L forms follow the SMILES beside them. Groups on a side chain read outwards from the residue. *: point of attachment. X2 = CC(=O)N[C@@H](CSC1CC(=O)N(CCC(=O)*)C1=O)C(=O)O; Dolaproine = CO[C@@H]([C@@H]1CCCN1)[C@@H](C)C(=O)O; Dil = CC[C@H](C)[C@H](NC)[C@@H](CC(=O)O)OC; NMe2Val = CC(C)[C@@H](C(=O)*)N(C)C; PEG5 = NCCOCCOCCOCCOCCOCCC(=O)O
OBSERVATION TYPE: half-life at 10 μM (min)
One number for each entry, in min.

(Q) Lookup: half-life at 10 μM / T1, recombinant human Cathepsin B (Homo sapiens, UniProt P07858) / CC[C@H](C)[C@@H]([C@@H](CC(=O)N1CCC[C@H]1[C@H](OC)[C@@H](C)C(=O)N[C@@H](Cc1ccccc1)C(=O)N[C@@H](CCCNC(=N)N)C(=O)N[C@@H](CCCCNC(=O)CCOCCOCCOCCOCCOCCNC(=O)CCN1C(=O)CC(SC[C@H](NC(C)=O)C(=O)O)C1=O)C(=O)N[C@@H](Cc1ccccc1)C(=O)O)OC)N(C)C(=O)[C@@H](NC(=O)[C@H](C(C)C)N(C)C)C(C)C (stereo partly drawn) [Compound 1, AF-Arg-Lys(PEG4-Mal-Cys-Ac)-Phe-OH] (NMe2Val-V[Dil][Dolaproine]FRK([PEG5-X2])F-OH)
(A) 1.5

----------
- TESTED TARGET: recombinant human Cathepsin B (Homo sapiens, UniProt P07858)
- Construct: purchased R&D Systems (Bio-Techne AG) 953-CY-010
- EXPERIMENT SUMMARY: Recombinant human Cathepsin B-induced cleavage (in vitro enzymatic cleavage assay, UHPLC-MS/MS)
- Type: biochemical
- CONDITION INFO: human, pH 5, text and figure legends; 10 μM test compound; read-out: t1/2 (Exo-Cat B-induced drug release study)
Residues, ends and D or L forms follow the SMILES beside them. *: point of attachment. DM1Mal(CH2)2CO = COc1cc2cc(c1Cl)N(C)C(=O)C[C@H](OC(=O)[C@H](C)N(C)C(=O)CCSC1CC(=O)N(CCC(=O)*)C1=O)[C@]1(C)O[C@H]1[C@H](C)[C@@H]1C[C@@](O)(NC(=O)O1)[C@H](OC)/C=C/C=C(\C)C2; X2 = CC(=O)N[C@@H](CSC1CC(=O)N(CCC(=O)*)C1=O)C(=O)O; PEG4 = NCCOCCOCCOCCOCCC(=O)O
OBSERVATION TYPE: half-life at 10 μM
Hey, just the number and the unit after it is fine.

(Q) Reported half-life at 10 μM for COc1cc2cc(c1Cl)N(C)C(=O)C[C@H](OC(=O)[C@H](C)N(C)C(=O)CCSC1CC(=O)N(CCC(=O)NCCCC[C@H](NC(=O)[C@H](CCCCN)NC(=O)[C@H](Cc3ccccc3)NC(=O)CCOCCOCCOCCOCCNC(=O)CCN3C(=O)CC(SC[C@H](NC(C)=O)C(=O)O)C3=O)C(=O)N[C@@H](Cc3ccccc3)C(=O)O)C1=O)[C@]1(C)O[C@H]1[C@H](C)[C@@H]1C[C@@](O)(NC(=O)O1)[C@H](OC)/C=C/C=C(\C)C2 (stereo partly shown) [Compound 12] ({X2-PEG4}-FKK(DM1Mal(CH2)2CO)F-OH) : what is it?
(A) 1.53 min

----------
- TESTED TARGET: T1, recombinant human Cathepsin B (Homo sapiens, UniProt P07858)
- T1 construct: purchased R&D Systems (Bio-Techne AG) 953-CY-010
- EXPERIMENT SUMMARY: Recombinant human Cathepsin B-induced cleavage (in vitro enzymatic cleavage assay, UHPLC-MS/MS)
- Format: biochemical
- CONDITION INFO: human, pH 5, 10 μM test compound, Cathepsin B 2 μg/mL, 25 mM MES buffer pH 5.0, 37° C.; read-out: T1/2 Compound
Non-standard residues stand in square brackets, D forms with d. Residues, ends and D or L forms follow the SMILES beside them. Groups on a side chain read outwards from the residue. *: point of attachment. Camptothecin(20S-OCO) = CC[C@@]1(OC(=O)*)C(=O)OCc2c1cc1n(c2=O)Cc2cc3ccccc3nc2-1; X2 = CC(=O)N[C@@H](CSC1CC(=O)N(CCC(=O)*)C1=O)C(=O)O; Dolaproine = CO[C@@H]([C@@H]1CCCN1)[C@@H](C)C(=O)O; Dil = CC[C@H](C)[C@H](NC)[C@@H](CC(=O)O)OC; NMe2Val = CC(C)[C@@H](C(=O)*)N(C)C; PEG5 = NCCOCCOCCOCCOCCOCCC(=O)O; PEG4 = NCCOCCOCCOCCOCCC(=O)O; Dap = NC[C@H](N)C(=O)O
OBSERVATION TYPE: half-life at 10 μM (min)
Numbers only, in min.

Would you mind listing half-life at 10 μM for each of the following compounds?
1. CC[C@@]1(OC(=O)NC[C@H](NC(=O)[C@H](CCCNC(=N)N)NC(=O)[C@H](Cc2ccccc2)NC(=O)CCOCCOCCOCCOCCOCCNC(=O)[C@@H](N)CCCNC(=N)N)C(=O)N[C@@H](Cc2ccccc2)C(=O)O)C(=O)OCc2c1cc1n(c2=O)Cc2cc3ccccc3nc2-1 [Compound 9, Arg-PEG4-Phe-Arg-Dap(CO-CPT)-Phe-OH] (H-R[PEG5]FR[Dap](Camptothecin(20S-OCO))F-OH; N-terminus assumed)
2. CC[C@H](C)[C@@H]([C@@H](CC(=O)N1CCC[C@H]1[C@H](OC)[C@@H](C)C(=O)N[C@@H](Cc1ccccc1)C(=O)N[C@@H](CCCNC(=N)N)C(=O)N[C@@H](Cc1ccccc1)C(=O)N[C@@H](CCCCNC(=O)CCOCCOCCOCCOCCNC(=O)CCN1C(=O)CC(SC[C@H](NC(C)=O)C(=O)O)C1=O)C(=O)O)OC)N(C)C(=O)[C@@H](NC(=O)[C@H](C(C)C)N(C)C)C(C)C (stereo partly drawn) [Compound 3, AF-Arg-Phe-Lys(PEG4-Mal-Cys-Ac)-OH] (NMe2Val-V[Dil][Dolaproine]FRFK([PEG4-X2])-OH)

(A)
[4.5, 1.4]
